Measured values drawn from patent US20080145840A1 for this set.

TEST_TARGET: E. coli GyrAB (Escherichia coli, UniProt P0AES6)
ASSAY_NOTES: Independent assay of GyrAB enzyme activity using phosphate detection
Type: biochemical
CONDITION_PARAMETERS: read-out: Ki, ADP
ATTRIBUTE_MEASURED: pKi
Notebook: values listed as pKi are -log10 of the concentration (mol/L).

## Input Give the value of pKi reported for the following: Nc1ncnc2c1ncn2[C@@H]1O[C@H](COP(=O)(O)OP(=O)(O)O)[C@@H](O)[C@H]1O
## Output 4.74

* * *

TEST_TARGET: UniProt:P0AES6
ASSAY_NOTES: ITC assay of E. coli GyrAB ATPase activity
Type: biochemical
CONDITION_PARAMETERS: read-out: Ki, ADP
ATTRIBUTE_MEASURED: pKi
Notebook: values listed as pKi are -log10 of the concentration (mol/L).

## Input Give the value of pKi reported for the following: Nc1ncnc2c1ncn2[C@@H]1O[C@H](COP(=O)(O)OP(=O)(O)O)[C@@H](O)[C@H]1O
## Output 4.74
